- measured on: Streptokinase A (Streptococcus pyogenes serotype M1)
- Sequence (P10520 whole entry): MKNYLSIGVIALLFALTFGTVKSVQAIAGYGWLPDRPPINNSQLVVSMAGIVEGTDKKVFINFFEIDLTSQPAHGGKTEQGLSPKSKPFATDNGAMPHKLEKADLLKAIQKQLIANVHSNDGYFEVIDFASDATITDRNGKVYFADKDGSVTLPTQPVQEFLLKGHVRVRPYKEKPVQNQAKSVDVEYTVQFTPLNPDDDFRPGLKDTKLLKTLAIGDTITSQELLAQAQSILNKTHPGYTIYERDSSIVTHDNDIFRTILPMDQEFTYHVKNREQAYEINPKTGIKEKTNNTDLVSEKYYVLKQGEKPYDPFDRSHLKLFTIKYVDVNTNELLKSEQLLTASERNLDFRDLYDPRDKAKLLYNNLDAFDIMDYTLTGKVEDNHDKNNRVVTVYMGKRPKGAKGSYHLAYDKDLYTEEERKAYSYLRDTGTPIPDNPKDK
- protocol summary: viability-normalized secreted streptokinase activity reduction – plasminogen activation absorbance, OD405, dose response (AID 1914);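 also: secreted streptokinase activity via plasminogen activation per viability signal from cell pellet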
- Type: functional, Streptococcus pyogenes M1 GAS
Activity calls are given as the source filed them. Rule as the data show it: actives have a measured EC50 and inactives only a lower limit.
reported property: EC50

// EC50 (Streptokinase A (Streptococcus pyogenes serotype M1)) for CCCCCCCCCCCCC(NC(C)=O)(C(=O)OCC)C(=O)OCC = > 150 µM (not active)

// EC50 (Streptokinase A (Streptococcus pyogenes serotype M1)) for O=C(NNC(=S)NC(=O)c1ccco1)c1ccc(NC(=O)c2ccccc2)cc1 = > 150 µM (not active)

// EC50 (Streptokinase A (Streptococcus pyogenes serotype M1)) for OCCN(CCO)c1ccc(C(c2ccccc2Cl)c2ccc(N(CCO)CCO)cc2Cl)c(Cl)c1 = 4.84 µM (active)

// EC50 (Streptokinase A (Streptococcus pyogenes serotype M1)) for COc1ccc(OC)c(/C=C/c2ccc3cccc(O)c3n2)c1 = > 150 µM (not active)

// EC50 (Streptokinase A (Streptococcus pyogenes serotype M1)) for CCOc1ccccc1NC(=O)c1nc(S(=O)(=O)Cc2cccc(C)c2)ncc1Cl = 1.28 µM (active)

FYI, the data here is from ChEMBL document CHEMBL1201862.
